- Tested on: Human immunodeficiency virus 1
- assay-notes: Antiviral activity against HIV1 infected MT4 cells in presence of 50% NHS
- Type: functional, organism-based
- applied-conditions: Human immunodeficiency virus 1, MT4
Give measured IC95 for each item. Keep answers brief.
Kindly format the answer as number then unit.

Sample CN1CC(c2csc(N)n2)n2nc(C(=O)NCc3ccc(F)cc3)c(O)c2C1=O (centres undefined) ; IC95 observed: 1 µM

Sample CN1CC(c2ccccc2)n2nc(C(=O)NCc3ccc(F)cc3)c(O)c2C1=O (centres undefined) ; IC95 observed: 0.31 µM

Sample CNC(=O)c1cc(F)ccc1CNC(=O)c1nn2c(c1O)C(=O)N(C)C[C@@H]2c1ccccc1 ; IC95 observed: 0.063 µM

Sample CN1CCn2nc(C(=O)NCc3ccc(F)cc3)c(O)c2C1=O ; IC95 observed: 2.5 µM
